B1: NR2F2 (parent)
chain: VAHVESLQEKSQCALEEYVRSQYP

variants of: B1; test: protein stability index of a GFP-peptide fusion (GPS, HEK-293T) (PSI 1-6); higher = more stable; conditions: c terminus: a fixed tail appended;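 further: lentivirally expressed fusions sorted by FACS into six bins by GFP to DsRed ratio, PSI derived from sequencing read proportions per bin multiplied by bin number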
Kindly note that classification relies on protein stability index with these boundaries: 0: < 3; 1: ≥ 3 and < 4; 2: ≥ 4

Q12S	0
Y18F	1
L15A	2
A2K	1
E17T	1
A2W	0

q: Band of `V19A` ?
a: 1

q: Then `V4T` ?
a: 1

q: Then `S21W` ?
a: 0

q: Then `P24M` ?
a: 1

q: Then `V4P` ?
a: 1

q: Then `Q22T` ?
a: 1

q: Then `Y18S` ?
a: 2
